# test_protocol: Cytotoxicity against MDCK cells after 40 hrs incubation by CellTiter-Glo assay
# Type: cell-based, Canis lupus familiaris
# particulars: dog
metric: CC50 at 40 h (µM)
Express the result in µM but write the number alone.

[
  {
    "structure_smiles_string": "CC1(C)CC[C@]2(C(=O)NC[C@H](O)[C@H]3OC(=O)C(O)=C3O)CC[C@]3(C)C(=CC[C@@H]4[C@@]5(C)CC[C@H](O)C(C)(C)[C@@H]5CC[C@]43C)[C@@H]2C1",
    "CC50 at 40 h, µM": 41.9
  }
]

Briefly, CC50 at 40 h measured for COC1=C(OC)[C@@H]([C@@H](O)Cn2cc(CNC(=O)[C@]34CC[C@@H](C)[C@H](C)[C@H]3C3=CC[C@@H]5[C@@]6(C)CC[C@H](O)C(C)(C)[C@@H]6CC[C@@]5(C)[C@]3(C)C[C@H]4O)nn2)OC1=O : 52.5
